- TARGET_DESC: Urease (Canavalia ensiformis, UniProt P07374)
- Sequence (P07374 whole entry): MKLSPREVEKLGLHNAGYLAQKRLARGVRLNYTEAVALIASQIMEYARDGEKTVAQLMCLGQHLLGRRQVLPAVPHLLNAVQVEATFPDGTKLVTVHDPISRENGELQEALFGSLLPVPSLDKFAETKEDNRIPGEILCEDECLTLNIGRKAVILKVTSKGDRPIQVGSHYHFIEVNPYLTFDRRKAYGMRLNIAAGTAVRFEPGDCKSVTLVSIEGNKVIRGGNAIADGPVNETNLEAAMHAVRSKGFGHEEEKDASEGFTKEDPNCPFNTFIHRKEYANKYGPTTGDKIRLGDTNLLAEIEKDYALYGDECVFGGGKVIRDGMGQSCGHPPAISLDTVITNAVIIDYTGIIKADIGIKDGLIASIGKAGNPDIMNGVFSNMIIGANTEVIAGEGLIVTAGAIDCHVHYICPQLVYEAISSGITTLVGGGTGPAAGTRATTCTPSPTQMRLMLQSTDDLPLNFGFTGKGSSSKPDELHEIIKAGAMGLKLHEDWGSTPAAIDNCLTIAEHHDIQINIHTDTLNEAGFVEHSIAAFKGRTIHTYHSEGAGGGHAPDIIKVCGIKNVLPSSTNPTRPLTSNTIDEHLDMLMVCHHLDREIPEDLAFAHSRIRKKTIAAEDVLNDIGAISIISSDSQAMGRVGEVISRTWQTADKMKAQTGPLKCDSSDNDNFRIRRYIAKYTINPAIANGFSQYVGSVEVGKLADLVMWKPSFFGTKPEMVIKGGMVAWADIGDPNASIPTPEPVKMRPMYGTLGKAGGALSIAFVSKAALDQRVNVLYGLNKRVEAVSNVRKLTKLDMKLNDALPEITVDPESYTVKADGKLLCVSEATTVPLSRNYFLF
This section presents molecules with their documented IC50 values.
RESULT_TYPE: IC50

- COc1ccc(-n2c(-c3c(-c4ccccc4)[nH]c4ccc(Br)cc34)nc(-c3ccccc3)c2-c2ccccc2)cc1: 4.62 µM
- Clc1ccc(-c2[nH]c3ccccc3c2-c2nc(-c3ccccc3)c(-c3ccccc3)n2-c2ccccc2)cc1: 0.37 µM
- Clc1ccc(-n2c(-c3c(-c4ccccc4)[nH]c4ccc(Br)cc34)nc(-c3ccccc3)c2-c2ccccc2)cc1: 4.66 µM
- Brc1ccc(-c2[nH]c3ccccc3c2-c2nc(-c3ccccc3)c(-c3ccccc3)n2-c2ccc(Br)cc2)cc1: 11.3 µM

* * *

- Tested on: Glycine max
- TEST_DESCRIPTION: Inhibition of soybean LOX using linoleic acid as substrate at 0.5 mM preincubated for 10 mins followed by substrate addition measured after 6 mins by spectrophotometric analysis
Quick list: inhibition per entry.
RESULT_TYPE: inhibition (%)

- Brc1ccc(-c2[nH]c3ccccc3c2-c2nc(-c3ccccc3)c(-c3ccccc3)n2-c2ccc(Br)cc2)cc1: 61.1
- Cc1ccc(-n2c(-c3c(-c4ccccc4)[nH]c4ccc(Br)cc34)nc(-c3ccccc3)c2-c2ccccc2)cc1: 81.4
- Clc1ccc(-c2[nH]c3ccccc3c2-c2nc(-c3ccccc3)c(-c3ccccc3)n2-c2ccccc2)cc1: 58.3
- Fc1ccc(-n2c(-c3c(-c4ccc(Br)cc4)[nH]c4ccccc34)nc(-c3ccccc3)c2-c2ccccc2)cc1: 87.8
- O=c1cc(-c2ccccc2)oc2cc(O)c(O)c(O)c12: 93.7
- FC(F)(F)c1ccc(-c2[nH]c3ccccc3c2-c2nc(-c3ccccc3)c(-c3ccccc3)n2-c2ccccc2)cc1: 86.2
- COc1ccc(-n2c(-c3c(-c4ccccc4)[nH]c4ccc(Br)cc34)nc(-c3ccccc3)c2-c2ccccc2)cc1: 57.5
- Cc1ccc(-n2c(-c3c(-c4ccc(C(F)(F)F)cc4)[nH]c4ccccc34)nc(-c3ccccc3)c2-c2ccccc2)cc1: 90.3

* * *

- System: Glycine max
- TEST_DESCRIPTION: Inhibition of soybean LOX using linoleic acid as substrate at 0.5 mM preincubated for 10 mins followed by substrate addition measured after 6 mins by spectrophotometric analysis
RESULT_TYPE: inhibition (%)

* Brc1ccc(-n2c(-c3c(-c4ccccc4)[nH]c4ccc(Br)cc34)nc(-c3ccccc3)c2-c2ccccc2)cc1 | 78.5
* Fc1ccc(-n2c(-c3c(-c4ccc(Cl)cc4)[nH]c4ccccc34)nc(-c3ccccc3)c2-c2ccccc2)cc1 | 84.5
* Brc1ccc2[nH]c(-c3ccccc3)c(-c3nc(-c4ccccc4)c(-c4ccccc4)n3-c3ccccc3)c2c1 | 97.2
* Clc1ccc(-n2c(-c3c(-c4ccccc4)[nH]c4ccc(Br)cc34)nc(-c3ccccc3)c2-c2ccccc2)cc1 | 83.2

* * *

IC50, Urease (Canavalia ensiformis), per-entry values.
RESULT_TYPE: IC50

* FC(F)(F)c1ccc(-c2[nH]c3ccccc3c2-c2nc(-c3ccccc3)c(-c3ccccc3)n2-c2ccc(Cl)cc2)cc1 | 4750 nM
* Brc1ccc(-n2c(-c3c(-c4ccccc4)[nH]c4ccc(Br)cc34)nc(-c3ccccc3)c2-c2ccccc2)cc1 | 150 nM
* Fc1ccc(-n2c(-c3c(-c4ccc(Cl)cc4)[nH]c4ccccc34)nc(-c3ccccc3)c2-c2ccccc2)cc1 | 440 nM
* Fc1ccc(-n2c(-c3c(-c4ccc(C(F)(F)F)cc4)[nH]c4ccccc34)nc(-c3ccccc3)c2-c2ccccc2)cc1 | 160 nM
